The measured values listed here are drawn from patent US20240270793A1.

# SYSTEM UNDER TEST: T1, human HIF-1α PAS-B (238-349), recombinant, His-tagged (human, UniProt Q16665 238-349, labelled with Monolith NT-647 dye for MST)
# T1 construct: range 238-349; Expressed in E. coli BL21(DE3)-Rosetta from pET28a; also called HIF-1α PAS-B domain; PAS-B domain of HIF-1α; not shown: His tag from pET28a vector (BamHI/SacI cloning)
# T1 sequence (Q16665 238-349): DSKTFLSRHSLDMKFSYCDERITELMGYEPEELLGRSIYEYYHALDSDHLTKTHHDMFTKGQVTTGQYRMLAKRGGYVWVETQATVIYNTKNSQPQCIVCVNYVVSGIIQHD
# PROTOCOL: MST, peptide titrated against labelled HIF-1α PAS-B [middle panel]
READOUT LABEL: Kd (µM)
One number for each entry, in µM.

## Task So what's the measured Kd for this one? CRLLIF (head-to-tail cyclic (cyclo-), also called CRLLIF; cyclic peptide #2) [cyclo-cys arg leu leu ile phe]
## Result 14.5
